The measured values listed here are drawn from PubChem BioAssay (NCI).

- procedure-details: NCI Yeast Anticancer Drug Screen. Data for the cln2 rad14 strain (AID 165);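 note: 0% = growth equal to vehicle treated cultures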
- applied-conditions: S. cerevisiae cln2 rad14 strain, at 5.0 µM (retest, dose inferred, filed as 0.5)
Compounds without any hit were thinned out: in the full panel of roughly 79,000, 15% have a hit. Active and inactive are the calls of the source. Cut-off read from the data, not from the text of the source: active = growth inhibition above about 70%; inactive = the rest.
Tick one outcome: label 1 for active, label 0 for inactive

Below, 4 compounds whose answers are already recorded.
>  <compound>
O=[N+]([O-])c1cc2c([N+](=O)[O-])cccc2o1

>  <class-assignment>
label 0

$$$$
>  <compound>
Cc1c(N)nc([C@H](CC(N)=O)NC[C@H](N)C(N)=O)nc1C(=O)N[C@H](C(=O)N[C@H](C)[C@@H](O)CC(=O)N[C@H](C(=O)NC(O[C@@H]1O[C@@H](C)[C@@H](N)[C@@H](O)[C@H]1O)C(O)c1nc(-c2nc(C(=O)NCCCCN)cs2)cs1)[C@@H](C)O)[C@@H](O[C@@H]1O[C@@H](CO)[C@@H](O)[C@H](O)[C@@H]1O[C@H]1O[C@H](CO)[C@@H](O)[C@H](OC(N)=O)[C@@H]1O)c1c[nH]cn1 (some centres undefined)

>  <class-assignment>
label 1

$$$$
>  <compound>
O=C(O)C1C2CCC(C2)C1c1ccccc1 (centres undefined)

>  <class-assignment>
label 0

$$$$
>  <compound>
Cc1ccc(NP(=O)(Oc2ccccc2)N(CCCl)CCCl)cc1 (centres undefined)

>  <class-assignment>
label 0

$$$$

Could you now look at the following compound, please?
Per the assay record, what outcome was assigned to CC(C)c1c(O)c(O)c2c(c1O)C(=O)C(O)=C1C(C)(C)CCC[C@@]12C ?
label 0
